Recorded values, source paper PMC11589101.

Experimental System: UniProt:P02766
Assay Protocol: FITC-T4 TTR-binding assay, screening method
Applied Conditions: screening method; read-out: IC50 TTR-binding assay, Screening Method
Experimental: All incubations were performed at room temperature. In the screening tests, 48 μl of Tris-HCl buffer (pH 8.0) was added to each well of black low-binding 96-well plates. […] Fluorescence was measured again to check for possible autofluorescence or quenching by the test compound. Fluorescence enhancement was determined for each well by subtracting its relative fluorescence units (RFU) before TTR addition from its RFUs after TTR addition. […]
So basically, if IC50 comes in under 8 µM it's y, and if it's 8 µM or more it's n.

Compound	Group Label
O=C(O)C(F)(F)C(F)(F)C(F)(F)C(F)(F)C(F)(F)F [PFHxA, Perfluorohexanoic acid]	y
Cc1cccc2[nH]nnc12 [4-methylbenzotriazole, 4-Methylbenzotriazole]	n
O=S(=O)(O)C(F)(F)C(F)(F)C(F)(F)C(F)(F)C(F)(F)C(F)(F)C(F)(F)C(F)(F)F [PFOS, Perfluorooctane sulfonic acid]	y
O=C(O)C(F)(F)C(F)(F)C(F)(F)C(F)(F)C(F)(F)C(F)(F)C(F)(F)F [PFOA, Perfluorooactanoic acid]	y
O=C(O)C(F)(OC(F)(F)C(F)(F)C(F)(F)F)C(F)(F)F (stereo not drawn) [GenX, Hexafluoropropylene oxide dimer acid]	n
